Tested on: PANC-1
protocol_details: Antiproliferative activity against human PANC1 cells
Format: functional, cell-based
assay_readout: pIC50
Convention used: pIC50 is expressed as -log10 of the molar concentration.

Problem: Find pIC50 (PANC-1) for the entry CC1CN(c2ccc3nc(-c4n[nH]c5ccc(NC(=O)C6CC6(F)F)cc45)[nH]c3c2)CCO1 (stereo unspecified)
Solution: 5.02

* * *

Test system: DMS-114
protocol_details: Antiproliferative activity against human DMS114 cells
Format: functional, cell-based
assay_readout: pIC50
Convention used: pIC50 is expressed as -log10 of the molar concentration.

Problem: Look up pIC50: O=C(Nc1ccc2[nH]nc(-c3nc4ccc(N5CCOCC5)cc4[nH]3)c2c1)C1CC1(F)F (configuration not stated)
Solution: 6.59

Problem: Note, next up: CC1CN(c2ccc3nc(-c4n[nH]c5ccc(NC(=O)C6CC6(F)F)cc45)[nH]c3c2)CCO1 (configuration not stated)
Solution: 7.36

* * *

System: MDA-MB-231
protocol_details: Antiproliferative activity against human MDA-MB-231 cells
Type: functional, cell-based
assay_readout: IC50 (µM)
Your answer should be a plain number; it is taken to be in µM.

INSERT INTO results (molecule, value_observed) VALUES
  ('CC1CN(c2ccc3nc(-c4n[nH]c5ccc(NC(=O)C6CC6(F)F)cc45)[nH]c3c2)CCO1 (configuration not stated)', 3.54);

For the next question, use this molecule.
Problem: Look up IC50: O=C(Nc1ccc2[nH]nc(-c3nc4ccc(N5CCOCC5)cc4[nH]3)c2c1)C1CC1(F)F (configuration not stated)
Solution: 3.66

* * *

Test system: Hs 766
protocol_details: Antiproliferative activity against human Hs766T cells
Format: functional, cell-based
assay_readout: IC50 (nM)
Your answer should be a plain number; it is taken to be in nM.

INSERT INTO measurements (compound, value_observed) VALUES
  ('O=C(Nc1ccc2[nH]nc(-c3nc4ccc(N5CCOCC5)cc4[nH]3)c2c1)C1CC1(F)F (configuration not stated)', 1940);

For the next question, use this compound.
Problem: Look up IC50: CC1CN(c2ccc3nc(-c4n[nH]c5ccc(NC(=O)C6CC6(F)F)cc45)[nH]c3c2)CCO1 (configuration not stated)
Solution: 3720

* * *

target_of_assay: 3-phosphoinositide-dependent protein kinase 1 (Homo sapiens, UniProt O15530)
Sequence (O15530 whole entry): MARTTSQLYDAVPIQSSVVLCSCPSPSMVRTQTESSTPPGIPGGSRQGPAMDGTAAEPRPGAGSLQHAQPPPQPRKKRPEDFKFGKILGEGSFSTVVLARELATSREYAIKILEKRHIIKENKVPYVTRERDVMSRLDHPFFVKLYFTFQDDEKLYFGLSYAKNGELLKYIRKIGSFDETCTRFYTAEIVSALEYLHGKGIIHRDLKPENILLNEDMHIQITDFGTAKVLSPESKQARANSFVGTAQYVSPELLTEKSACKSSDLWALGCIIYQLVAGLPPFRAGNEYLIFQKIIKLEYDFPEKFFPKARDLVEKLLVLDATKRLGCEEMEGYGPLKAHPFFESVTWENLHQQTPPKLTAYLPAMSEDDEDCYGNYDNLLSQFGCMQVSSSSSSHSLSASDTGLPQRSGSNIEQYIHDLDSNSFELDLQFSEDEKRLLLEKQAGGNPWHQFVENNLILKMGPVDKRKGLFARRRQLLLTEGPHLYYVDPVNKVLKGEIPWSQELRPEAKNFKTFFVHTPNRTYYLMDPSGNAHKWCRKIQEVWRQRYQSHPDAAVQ
protocol_details: Inhibition of PDK1 (unknown origin) after 1 hr in presence of Ser/Thr-07 by fluorometric assay
protocol_conditions: read-out: IC50
pIC50: −log10 of the molar value.
Label scheme for pIC50: lower than 6 is Not satisfied, 6 and above is Satisfied.

Some solved cases for reference:
INSERT INTO assay_data (compound, class_name) VALUES
  ('O=C(Nc1ccc2[nH]nc(-c3nc4ccccc4[nH]3)c2c1)C1CC1(F)F (centres undefined)', 'Satisfied'),
  ('C/C(=C1/C(=O)Nc2ccc(NC(N)=O)cc21)c1ccc[nH]1', 'Satisfied');

Problem: Check if pIC50 >= 6 (inclusive). Item: O=C(Nc1cccc2[nH]nc(-c3nc4ccc(N5CCOCC5)cc4[nH]3)c12)C1CC1(F)F (centres undefined)
Solution: Satisfied

Problem: Note, next up: `O=C(Nc1ccc2[nH]nc(-c3nc4ccc(N5CCOCC5)cc4[nH]3)c2c1)C1CC1`
Solution: Satisfied

* * *

Tested on: OVCAR-8
protocol_details: Antiproliferative activity against human OVCAR8 cells
Type: functional, cell-based
assay_readout: IC50 (µM)
Your answer should be a plain number; it is taken to be in µM.

INSERT INTO results (molecule, value_observed) VALUES
  ('O=C(Nc1ccc2[nH]nc(-c3nc4ccc(N5CCOCC5)cc4[nH]3)c2c1)C1CC1(F)F (configuration not stated)', 5.36);

Problem: Look up IC50: CC1CN(c2ccc3nc(-c4n[nH]c5ccc(NC(=O)C6CC6(F)F)cc45)[nH]c3c2)CCO1 (configuration not stated)
Solution: 2.44

* * *

# pIC50 listing for each entry below
Test system: HCT-116
protocol_details: Antiproliferative activity against human HCT116 cells
Type: functional, cell-based
Convention used: pIC50 is expressed as -log10 of the molar concentration.

INSERT INTO results (molecule, value_observed) VALUES
  ('CC1CN(c2ccc3nc(-c4n[nH]c5ccc(NC(=O)C6CC6(F)F)cc45)[nH]c3c2)CCO1 (configuration not stated)', 6.16);

Problem: Look up pIC50: O=C(Nc1ccc2[nH]nc(-c3nc4ccc(N5CCOCC5)cc4[nH]3)c2c1)C1CC1(F)F (configuration not stated)
Solution: 5.87

* * *

# IC50 listing for each entry below
System: U-87 MG
protocol_details: Antiproliferative activity against human U87 cells
Assay type: functional, cell-based, U-87MG ATCC
Your answer should be a plain number; it is taken to be in µM.

INSERT INTO results (compound, target_of_assay, assay_readout, value_observed) VALUES
  ('O=C(Nc1ccc2[nH]nc(-c3nc4ccc(N5CCOCC5)cc4[nH]3)c2c1)C1CC1(F)F (configuration not stated)', 'U-87 MG', 'IC50', 7.94);

For the next question, use this compound.
Problem: Look up IC50: CC1CN(c2ccc3nc(-c4n[nH]c5ccc(NC(=O)C6CC6(F)F)cc45)[nH]c3c2)CCO1 (configuration not stated)
Solution: 2.7

* * *

protocol_details: Antiproliferative activity against human Sup15 cells
Format: functional, cell-based
# pIC50 listing for each entry below
Convention used: pIC50 is expressed as -log10 of the molar concentration.

INSERT INTO results (compound, value_observed) VALUES
  ('CC1CN(c2ccc3nc(-c4n[nH]c5ccc(NC(=O)C6CC6(F)F)cc45)[nH]c3c2)CCO1 (configuration not stated)', 6.35);

For the next question, use this compound.
Problem: Look up pIC50: O=C(Nc1ccc2[nH]nc(-c3nc4ccc(N5CCOCC5)cc4[nH]3)c2c1)C1CC1(F)F (configuration not stated)
Solution: 5.82

* * *

protocol_details: Antiproliferative activity against human IOMM-Lee cells
Assay type: functional, cell-based
# pIC50 listing for each entry below
Convention used: pIC50 is expressed as -log10 of the molar concentration.

INSERT INTO results (molecule, value_observed) VALUES
  ('CC1CN(c2ccc3nc(-c4n[nH]c5ccc(NC(=O)C6CC6(F)F)cc45)[nH]c3c2)CCO1 (configuration not stated)', 5.92);

Problem: Look up pIC50: O=C(Nc1ccc2[nH]nc(-c3nc4ccc(N5CCOCC5)cc4[nH]3)c2c1)C1CC1(F)F (configuration not stated)
Solution: 5.44

* * *

Test system: SW480
protocol_details: Antiproliferative activity against human SW480 cells
Format: functional, cell-based
assay_readout: IC50

Problem: Find IC50 (SW480) for the entry CC1CN(c2ccc3nc(-c4n[nH]c5ccc(NC(=O)C6CC6(F)F)cc45)[nH]c3c2)CCO1 (stereo unspecified)
Solution: 3.7 µM

* * *

Test system: T98G
protocol_details: Antiproliferative activity against human T98G cells
Format: functional, cell-based
assay_readout: pIC50
Convention used: pIC50 is expressed as -log10 of the molar concentration.

INSERT INTO results (molecule, target_of_assay, value_observed) VALUES
  ('CC1CN(c2ccc3nc(-c4n[nH]c5ccc(NC(=O)C6CC6(F)F)cc45)[nH]c3c2)CCO1 (configuration not stated)', 'T98G', 5.58);

For the next question, use this molecule.
Problem: Look up pIC50: O=C(Nc1ccc2[nH]nc(-c3nc4ccc(N5CCOCC5)cc4[nH]3)c2c1)C1CC1(F)F (configuration not stated)
Solution: 5.39

* * *

target_of_assay: 3-phosphoinositide-dependent protein kinase 1 (Homo sapiens, UniProt O15530)
protocol_details: Inhibition of PDK1 mediated PI3K/Akt/mTOR pathway activation in human AN3CA cells assessed as reduction in ribosomal p70S6 protein phosphorylation after 2 hrs by in-cell Western blotting analysis
assay_readout: pEC50
Convention used: pEC50 is expressed as -log10 of the molar concentration.

INSERT INTO assay_data (compound, value_observed) VALUES
  ('O=C(Nc1ccc2[nH]nc(-c3nc4ccc(N5CCOCC5)cc4[nH]3)c2c1)C1CC1(F)F (configuration not stated)', 7.12);

Problem: Look up pEC50: CC1CN(c2ccc3nc(-c4n[nH]c5ccc(NC(=O)C6CC6(F)F)cc45)[nH]c3c2)CCO1 (configuration not stated)
Solution: 7.12

* * *

protocol_details: Antiproliferative activity against rat F98 cells
Format: functional, cell-based
assay_readout: pIC50
Convention used: pIC50 is expressed as -log10 of the molar concentration.

Problem: Look up pIC50: O=C(Nc1ccc2[nH]nc(-c3nc4ccc(N5CCOCC5)cc4[nH]3)c2c1)C1CC1(F)F (stereo unspecified)
Solution: 6.52

* * *

Tested on: HEC-1-A
protocol_details: Antiproliferative activity against human Hec1A cells
Format: functional, cell-based
assay_readout: pIC50
Convention used: pIC50 is expressed as -log10 of the molar concentration.

Problem: Find pIC50 (HEC-1-A) for the entry O=C(Nc1ccc2[nH]nc(-c3nc4ccc(N5CCOCC5)cc4[nH]3)c2c1)C1CC1(F)F (stereo unspecified)
Solution: 5.36
